For each of the sequences below, state its phosphorylation enrichment.
system: c-Src; test: phosphorylation enrichment, bacterial display (enrichment ratio); higher = better substrate or ligand; peptides without Tyr show the background;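 note: 11-residue human phosphosite peptides and single-mutation variants displayed on the E. coli surface, counted by deep sequencing, each peptide's frequency after selection divided by its frequency in the unselected input library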;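 note: frequency after pTyr selection over input frequency; kinase dosed for 20-30% of maximal phosphorylation in three min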
Please give only the number in your answer, with no unit.

Query :: Could you tell me which phosphorylation enrichment is on file for LDAGEYCVPRG [BEX1_Y43] ?
Result :: 0.816

Query :: // next record FHKALYTVRSF [PDE6C_Y266_YF]
Result :: 0.389

Query :: // next record IIRYNYLLDVL [FGFR4_Y237_S232I]
Result :: 0.49

Query :: // next record MGHVNYGAYIN [GLB1_Y485_R482H]
Result :: 0.589

Query :: // next record NTFEKYWLFFQ [GATM_Y103_P105L_YF]
Result :: 0.538

Query :: // next record VMSMNYRVGAL [BCHE_Y174_V170M]
Result :: 0.484

Query :: // next record HELFVYKSDEN [DOCK3_Y548_C550S_YF]
Result :: 0.616

Query :: // next record IYETDYYQKGG [INSR_Y1189_R1191Q]
Result :: 1.37

Query :: // next record AGITAYQSCLQ [ADGRA2_Y377]
Result :: 0.518

Query :: // next record LVSCAYQVARG [FGFR1_Y605]
Result :: 0.577

Query :: // next record HKDNNYISMWF [PAPOLG_Y432_V433I]
Result :: 0.663

Query :: // next record NLMPAYFKCIQ [CYP21A2_Y190_YF]
Result :: 0.526

Query :: // next record NVFGNYNQQPS [HNRNPA2B1_Y306_D302V]
Result :: 0.384

Query :: // next record FAKTQYPDIFA [CRX_Y63_V66I_YF]
Result :: 0.415

Query :: // next record VVTFSYKPPGN [RBL2_Y544]
Result :: 0.423

Query :: // next record GRQGIYTENKR [GPR143_Y231_E235K]
Result :: 0.529

Query :: // next record LGIDRYHAIVY [NPSR1_Y147_S143G]
Result :: 0.621

Query :: // next record TKQLTYEEQYL [PIK3C3_Y310_D314Y]
Result :: 0.732

Query :: // next record GREAEYSDKHG [EPHB4_Y574]
Result :: 0.405

Query :: // next record KKRSVYLKVLF [CC2D2A_Y683]
Result :: 0.391

Query :: // next record FFRDGYMPRQF [GSS_Y270_YF]
Result :: 0.345

Query :: // next record QSQQAYQEAFE [YWHAZ_Y149]
Result :: 0.578

Query :: // next record RAEIVYKSPVV [MAPT_Y711_G706R]
Result :: 0.723

Query :: // next record KYRREYILSLE [GPC3_Y299_W296R]
Result :: 0.613

Query :: // next record VAMDDYLKNVM [LRRK2_Y707]
Result :: 0.409

Query :: // next record VLDSHYPEDEV [C1QBP_Y188_C186S]
Result :: 0.525

Query :: // next record RVKPIYFHTQG [AR_Y916_K911R]
Result :: 0.952

Query :: // next record FEKFLYFLPAS [DYNC2H1_Y346_H341Y_YF]
Result :: 0.76

Query :: // next record YTDPYYDYEIE [ZC3H18_Y372_A368T]
Result :: 2.94

Reference source for all entries: the supplement of paper PMC10065799
